Recorded Kd values for a group of binders are listed next.
TARGET_SYSTEM: T1, Human IL-18Rα extracellular domain (human, UniProt Q13478 22-329, biotinylated (site not stated))
T1 construct: also called IL-18 receptor
T1 sequence: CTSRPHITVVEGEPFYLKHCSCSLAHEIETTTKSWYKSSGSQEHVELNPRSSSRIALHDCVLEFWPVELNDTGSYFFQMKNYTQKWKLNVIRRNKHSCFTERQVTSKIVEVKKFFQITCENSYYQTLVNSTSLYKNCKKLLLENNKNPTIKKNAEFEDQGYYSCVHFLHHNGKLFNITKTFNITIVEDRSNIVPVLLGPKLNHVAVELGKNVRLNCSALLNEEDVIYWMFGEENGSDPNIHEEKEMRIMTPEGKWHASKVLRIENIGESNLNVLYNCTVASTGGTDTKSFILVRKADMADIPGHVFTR
ASSAY: SPR, Biacore 8K, 37 C, biotinylated target on SA chip, single-cycle kinetics
EXPERIMENTAL_READOUT: Kd (nM)

- BINDER: "Human IL-18 L174C (ligand, Made in mammalian cells) YFGKLESKLSVIRNLNDQVLFIDQGNRPLFEDMTDSDSRDNAPRTIFIISMYKDSQPRGMAVTISVKSEKISTLSCENKIISFKEMNPPDNIKDTKSDIIFFQRSVPGHDNKMQFESSSYEGYFLASEKERDLFKLICKKEDELGDRSIMFTVQNED"
  EXPERIMENTAL_READOUT: "Kd"
  UOM: "nM"
  REPORTED_RESULT: 32.8
- BINDER: "Human IL-18 T99C/P124C (ligand, Made in mammalian cells) YFGKLESKLSVIRNLNDQVLFIDQGNRPLFEDMTDSDSRDNAPRTIFIISMYKDSQPRGMAVCISVKSEKISTLSSENKIISFKEMNCPDNIKDTKSDIIFFQRSVPGHDNKMQFESSSYEGYFLASEKERDLFKLILKKEDELGDRSIMFTVQNED"
  EXPERIMENTAL_READOUT: "Kd"
  UOM: "nM"
  REPORTED_RESULT: 64.4
- BINDER: "Human IL-18 I107C/N123C (ligand, Made in mammalian cells) YFGKLESKLSVIRNLNDQVLFIDQGNRPLFEDMTDSDSRDNAPRTIFIISMYKDSQPRGMAVTISVKSEKCSTLSSENKIISFKEMCPPDNIKDTKSDIIFFQRSVPGHDNKMQFESSSYEGYFLASEKERDLFKLILKKEDELGDRSIMFTVQNED"
  EXPERIMENTAL_READOUT: "Kd"
  UOM: "nM"
  REPORTED_RESULT: 14.7
- BINDER: "Human IL-18 hCS (ligand) YFGKLESKLSVIRNLNDQVLFIDQGNRPLFEDMTDSDSRDNAPRTIFIISMYKDSQPRGMAVTISVKSEKISTLSSENKIISFKEMNPPDNIKDTKSDIIFFQRSVPGHDNKMQFESSSYEGYFLASEKERDLFKLILKKEDELGDRSIMFTVQNED"
  EXPERIMENTAL_READOUT: "Kd"
  UOM: "nM"
  REPORTED_RESULT: 1.7
- BINDER: "Human IL-18 L45C/E192C (ligand, Made in mammalian cells) YFGKLESKCSVIRNLNDQVLFIDQGNRPLFEDMTDSDSRDNAPRTIFIISMYKDSQPRGMAVTISVKSEKISTLSSENKIISFKEMNPPDNIKDTKSDIIFFQRSVPGHDNKMQFESSSYEGYFLASEKERDLFKLILKKEDELGDRSIMFTVQNCD"
  EXPERIMENTAL_READOUT: "Kd"
  UOM: "nM"
  REPORTED_RESULT: 58.7
- BINDER: "Human IL-18 A162C/I185C (ligand, Made in mammalian cells) YFGKLESKLSVIRNLNDQVLFIDQGNRPLFEDMTDSDSRDNAPRTIFIISMYKDSQPRGMAVTISVKSEKISTLSSENKIISFKEMNPPDNIKDTKSDIIFFQRSVPGHDNKMQFESSSYEGYFLCSEKERDLFKLILKKEDELGDRSCMFTVQNED"
  EXPERIMENTAL_READOUT: "Kd"
  UOM: "nM"
  REPORTED_RESULT: 68.1
- BINDER: "Human IL-18 S46C/V189C (ligand, Made in mammalian cells) YFGKLESKLCVIRNLNDQVLFIDQGNRPLFEDMTDSDSRDNAPRTIFIISMYKDSQPRGMAVTISVKSEKISTLSSENKIISFKEMNPPDNIKDTKSDIIFFQRSVPGHDNKMQFESSSYEGYFLASEKERDLFKLILKKEDELGDRSIMFTCQNED"
  EXPERIMENTAL_READOUT: "Kd"
  UOM: "nM"
  REPORTED_RESULT: 147
- BINDER: "Human IL-18 S101C/T109C (ligand, Made in mammalian cells) YFGKLESKLSVIRNLNDQVLFIDQGNRPLFEDMTDSDSRDNAPRTIFIISMYKDSQPRGMAVTICVKSEKISCLSSENKIISFKEMNPPDNIKDTKSDIIFFQRSVPGHDNKMQFESSSYEGYFLASEKERDLFKLILKKEDELGDRSIMFTVQNED"
  EXPERIMENTAL_READOUT: "Kd"
  UOM: "nM"
  REPORTED_RESULT: 147

# credit: patent US20240409599A1
